Molecular target: 4,4'-diapophytoene desaturase (4,4'-diaponeurosporene-forming) (Staphylococcus aureus (strain Newman))
Experiment: Inhibition of CrtN in Staphylococcus aureus Newman assessed as reduction in staphyloxanthin levels after 48 hrs by spectrophotometric method-based pigment inhibition assay
Design: species or system Staphylococcus aureus subsp. aureus str. Newman
Catalogue of IC50 readings, one per entry.

# compound, IC50
records = [
    ("CC(C)N(C/C=C/c1ccc(C(F)(F)F)cc1)CC1=COC2C=CC=CC12 (stereo unspecified)", "> 1000 nM"),
    ("CN(C/C=C/c1ccco1)Cc1cccc2cc[nH]c12", "> 1000 nM"),
    ("CN(CC#Cc1ccc(-c2ccccc2)cc1)Cc1coc2ccccc12", "> 1000 nM"),
    ("CN(C/C=C/c1cccc(Cl)c1)Cc1coc2ccccc12", "> 1000 nM"),
    ("CN(C/C=C/c1cccc(C(F)(F)F)c1)Cc1coc2ccccc12", "> 1000 nM"),
    ("COc1ccccc1/C=C/CN(C)Cc1coc2ccccc12", "> 1000 nM"),
]

* * *

Target: 4,4'-diapophytoene desaturase (4,4'-diaponeurosporene-forming) (Staphylococcus aureus (strain Newman), UniProt O07855)
Sequence (O07855 whole entry): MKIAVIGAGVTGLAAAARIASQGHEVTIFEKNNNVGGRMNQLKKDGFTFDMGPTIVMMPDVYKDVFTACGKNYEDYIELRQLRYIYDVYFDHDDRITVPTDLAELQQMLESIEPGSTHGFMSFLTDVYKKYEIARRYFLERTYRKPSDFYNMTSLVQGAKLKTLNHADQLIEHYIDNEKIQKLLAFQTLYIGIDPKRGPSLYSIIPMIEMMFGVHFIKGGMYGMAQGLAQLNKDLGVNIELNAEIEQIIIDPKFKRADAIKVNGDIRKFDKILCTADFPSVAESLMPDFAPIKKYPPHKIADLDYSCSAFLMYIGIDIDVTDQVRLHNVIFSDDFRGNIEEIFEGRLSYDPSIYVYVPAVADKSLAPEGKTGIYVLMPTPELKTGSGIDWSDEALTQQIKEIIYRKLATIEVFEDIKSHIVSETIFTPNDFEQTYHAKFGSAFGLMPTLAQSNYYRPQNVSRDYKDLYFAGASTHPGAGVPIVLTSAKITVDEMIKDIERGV
Assay: Inhibition of CrtN in Staphylococcus aureus Newman assessed as reduction in staphyloxanthin levels after 48 hrs by spectrophotometric method-based pigment inhibition assay
Parameters: species or system Staphylococcus aureus subsp. aureus str. Newman
pIC50: −log10 of the molar value.
Listing of recorded pIC50 by entry.

# structure_string, limit_qualifier, pIC50
data = [
    ("CN(C/C=C/c1cccs1)Cc1coc2ccccc12", "<", 6.00),
    ("CN(C/C=C/c1ccc(Br)cc1)Cc1coc2ccccc12", "=", 8.60),
    ("CN(C/C=C/c1ccc(C#N)cc1)Cc1cccc2cc[nH]c12", "=", 6.11),
]

* * *

IC50: recorded values
Target: 4,4'-diapophytoene desaturase (4,4'-diaponeurosporene-forming) (Staphylococcus aureus (strain Newman), UniProt O07855)
Test: Inhibition of CrtN in Staphylococcus aureus Newman assessed as reduction in staphyloxanthin levels after 48 hrs by spectrophotometric method-based pigment inhibition assay
Set-up: species or system Staphylococcus aureus subsp. aureus str. Newman

# structure_string, IC50
measured = [
    ("CN(C/C=C/c1ccccc1)Cc1cccc2cc[nH]c12", "> 1000 nM"),
    ("COc1ccccc1/C=C/CN(C)Cc1cccc2cc[nH]c12", "> 1000 nM"),
    ("CN(C/C=C/c1ccc(C(F)(F)F)cc1)Cc1c[nH]c2ccccc12", "> 1000 nM"),
]
